What kon was measured for each of the following?
# system-tested: T1, hFc-hC3d fusion protein (human, UniProt P01024 1002-1303, limits assumed)
# T1 construct: domain: C3d; also called immobilized hC3d; not shown: human IgG Fc (hFc), captured by an anti-human IgG CH2 / Fcγ mAb
# T1 sequence (P01024 1002-1303 limits assumed): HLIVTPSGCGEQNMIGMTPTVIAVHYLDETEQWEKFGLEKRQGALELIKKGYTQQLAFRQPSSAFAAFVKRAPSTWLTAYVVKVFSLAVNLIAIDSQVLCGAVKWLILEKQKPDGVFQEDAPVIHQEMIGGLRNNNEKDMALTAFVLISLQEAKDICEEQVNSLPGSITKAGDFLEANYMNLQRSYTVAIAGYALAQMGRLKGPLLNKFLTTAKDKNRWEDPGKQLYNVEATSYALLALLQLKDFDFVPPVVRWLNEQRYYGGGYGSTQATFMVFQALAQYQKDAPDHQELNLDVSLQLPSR
# assay-details: SPR (Biacore X100), Fab over captured hFc-hC3d
Answers are plain numbers, in M⁻¹ s⁻¹.

Ab3 Fab (His-tagged rabbit/human chimeric anti-C3d Fab) (Fab, V domains shown, Fab with rabbit Vκ/human Cκ/rabbit VH, His-tagged; also called Ab3 (κ)) VH: QKQLVESGGRLVTPGGSLTLTCTISGIDLNTYGMTWVRQAPGKGLEYIGIIVSSGNTYYANWAQGRFTISKTSTTVDLKMTSLTASDTATYFCARGLGRAYSSGYGMDGWGPGTLVTVSS VL: DPVLTQTPSSTSAAVGGTVTIKCQASQNIYTSLAWYQQKPGQPPKLLIYGASNLASGVPSRFKGSRSGTEYTLTISGVEREDAATYYCLGSYTQIDTTFGGGTKLEIK :: 94600
Ab5 Fab (His-tagged rabbit/human chimeric anti-C3d Fab) (Fab, V domains shown, Fab with rabbit Vκ/human Cκ/rabbit VH, His-tagged; also called Ab5 (κ)) VH: QSLEESGGRLVTPGTPLTLTCTVSGFSLSTYTLGWVRQAPGKGLEYIGWIDSSGSAYYASWAKGRFTISKASSTTVDLKMAGLTTEDTATYFCASGNTGGDPLYYGMDPWGPGTLVTVSS VL: DPVLTQTPSSTSAAVGGTVTIKCQASQNIGRWLAWYQQKPGQPPKLLIYRASDLASGVPSRFKGSGSGTQFTLTISGVQREDAATYYCLGSYSSSDSAFGGGTEVVVK :: 141000
Ab2 Fab (His-tagged rabbit/human chimeric anti-C3d Fab) (Fab, V domains shown, Fab with rabbit Vκ/human Cκ/rabbit VH, His-tagged; also called Ab2 (κ)) VH: QSVEESGGRLVTPGTPLTLTCTVSGFSLSSYAMTWVRQAPGKGLEWIGVIGTSGMRYYANWAKGRFTISKTSTTVDLKITSPTTEDTATYFCARANFYVGNDESTDAFDPWGPGTLVTVSS VL: ALVMTQTPPSLSASVGETVRIRCLASEDIYNTISWYQQKPGKPPTLLIYGASNLKSGVPPRFSGSGSGTDYTLTIGGVQSEDAATYYCLGGYSYSSTGLTFGAGTKVEIK :: 162000

Now consider a different binder.
Ab4 Fab (His-tagged rabbit/human chimeric anti-C3d Fab) (Fab, V domains shown, Fab with rabbit Vκ/human Cκ/rabbit VH, His-tagged; also called Ab4 (κ)) VH: QSLEESGGRLVTPGTPLTLTCTVSGFSLSRYTMAWVRQAPGKGLEYIGWIDSSGSTYYASWAKGRFTISKTSSTTVDLKMTSLTTEDTATYFCASGNDGGDPLYYGMDPWGPGTLVTVSS VL: DGVMTQTPSSTSAAVGGTVTIKCQASQSIRSWLSWYQQKPGQPPKLLIYEASKLASGVPSRFKGSRSGTEYTLAISGVQREDAATYYCLGSIASDDTAFGAGTNVEIK yielded kon of 90900
